// provenance: patent US20220306695A1

biological target: Human C3 (human, UniProt P01024 23-1663); assay: cell-based or functional assay
Sequence (P01024 23-1663 limits assumed): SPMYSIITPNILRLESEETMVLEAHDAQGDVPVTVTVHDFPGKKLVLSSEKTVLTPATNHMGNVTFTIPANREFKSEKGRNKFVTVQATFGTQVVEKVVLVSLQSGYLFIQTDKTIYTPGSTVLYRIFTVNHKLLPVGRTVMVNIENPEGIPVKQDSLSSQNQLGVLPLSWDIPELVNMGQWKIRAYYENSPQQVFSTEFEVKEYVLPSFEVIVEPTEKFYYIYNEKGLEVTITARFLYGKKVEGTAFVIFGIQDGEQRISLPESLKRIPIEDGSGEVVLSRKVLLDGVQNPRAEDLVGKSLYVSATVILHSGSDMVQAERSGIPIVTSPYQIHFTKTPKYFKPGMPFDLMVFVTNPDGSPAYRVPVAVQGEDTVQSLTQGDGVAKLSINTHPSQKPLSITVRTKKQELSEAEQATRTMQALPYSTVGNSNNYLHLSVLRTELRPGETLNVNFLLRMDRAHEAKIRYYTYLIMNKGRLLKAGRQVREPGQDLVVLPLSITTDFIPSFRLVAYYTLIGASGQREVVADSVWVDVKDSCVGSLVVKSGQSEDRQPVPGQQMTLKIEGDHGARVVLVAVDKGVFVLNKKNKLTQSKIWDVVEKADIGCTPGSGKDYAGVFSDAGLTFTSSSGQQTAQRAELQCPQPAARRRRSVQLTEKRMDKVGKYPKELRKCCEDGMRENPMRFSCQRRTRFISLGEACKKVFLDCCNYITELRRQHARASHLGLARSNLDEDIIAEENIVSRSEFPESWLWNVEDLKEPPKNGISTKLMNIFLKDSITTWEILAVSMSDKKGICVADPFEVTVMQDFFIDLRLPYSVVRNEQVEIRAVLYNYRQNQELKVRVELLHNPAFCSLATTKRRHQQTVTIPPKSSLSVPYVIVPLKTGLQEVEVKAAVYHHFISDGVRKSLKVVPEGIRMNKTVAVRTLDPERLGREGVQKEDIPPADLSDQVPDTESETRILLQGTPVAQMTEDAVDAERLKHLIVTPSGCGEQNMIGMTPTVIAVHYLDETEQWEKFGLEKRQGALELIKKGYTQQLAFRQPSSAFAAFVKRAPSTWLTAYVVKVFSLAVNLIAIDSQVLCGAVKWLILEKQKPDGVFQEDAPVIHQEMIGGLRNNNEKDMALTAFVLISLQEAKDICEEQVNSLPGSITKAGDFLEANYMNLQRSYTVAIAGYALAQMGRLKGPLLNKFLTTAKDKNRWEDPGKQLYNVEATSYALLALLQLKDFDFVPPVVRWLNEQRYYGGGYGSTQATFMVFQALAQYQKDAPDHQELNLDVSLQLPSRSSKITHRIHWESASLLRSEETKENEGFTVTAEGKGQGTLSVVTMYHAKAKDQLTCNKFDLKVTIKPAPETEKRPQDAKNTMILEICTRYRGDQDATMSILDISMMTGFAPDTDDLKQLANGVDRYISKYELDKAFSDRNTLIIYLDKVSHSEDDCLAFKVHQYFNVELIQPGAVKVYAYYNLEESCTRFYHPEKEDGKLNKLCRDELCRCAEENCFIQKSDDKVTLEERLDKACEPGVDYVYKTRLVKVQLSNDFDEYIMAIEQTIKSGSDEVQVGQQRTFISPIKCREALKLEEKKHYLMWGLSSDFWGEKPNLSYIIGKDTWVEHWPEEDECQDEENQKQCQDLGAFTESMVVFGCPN
Positions of bridges follow the written chain, without caps; N, C: chain ends.
test.readout: IC50[nM], inhibition of hemolysis

Ac-ESSAICIWQDWGEHRCT-NH2 (disulfide 6-16; SMILES CC[C@H](C)[C@H](NC(=O)[C@H](C)NC(=O)[C@H](CO)NC(=O)[C@H](CO)NC(=O)[C@H](CCC(=O)O)NC(C)=O)C(=O)N[C@H]1CSSC[C@@H](C(=O)N[C@H](C(N)=O)[C@@H](C)O)NC(=O)[C@H](CCCNC(=N)N)NC(=O)[C@H](Cc2c[nH]cn2)NC(=O)[C@H](CCC(=O)O)NC(=O)CNC(=O)[C@H](Cc2c[nH]c3ccccc23)NC(=O)[C@H](CC(=O)O)NC(=O)[C@H](CCC(N)=O)NC(=O)[C@H](Cc2c[nH]c3ccccc23)NC(=O)[C@H]([C@@H](C)CC)NC1=O) [Compound 3] = < 100 nM

Q: Dear colleague, please send me the reported IC50[nM], inhibition of hemolysis for Ac-EGEICIWQDWGEHRCT-NH2 (disulfide 5-15; SMILES CC[C@H](C)[C@@H]1NC(=O)[C@@H](NC(=O)[C@@H](NC(=O)[C@H](CCC(=O)O)NC(=O)CNC(=O)[C@H](CCC(=O)O)NC(C)=O)[C@@H](C)CC)CSSC[C@@H](C(=O)N[C@H](C(N)=O)[C@@H](C)O)NC(=O)[C@H](CCCNC(=N)N)NC(=O)[C@H](Cc2c[nH]cn2)NC(=O)[C@H](CCC(=O)O)NC(=O)CNC(=O)[C@H](Cc2c[nH]c3ccccc23)NC(=O)[C@H](CC(=O)O)NC(=O)[C@H](CCC(N)=O)NC(=O)[C@H](Cc2c[nH]c3ccccc23)NC1=O) [Compound 30] when you can.
Result: < 100 nM

Q: State its IC50[nM], inhibition of hemolysis: {15‑Carboxy‑pentadecanoyl}-ESSAICIWQDWGEHRCTEGE-NH2 (disulfide 6-16) [Compound 99]
Result: < 250 nM
